target: recombinant BRD4 BD1 (Homo sapiens); construct: recombinant BRD4 BD1 and BRD4 BD2 proteins; experiment: Competitive fluorescence-polarization (FP) binding assay, BRD4 BD1; conditions: FP competitive binding; protein 10 nM, probe 1.5 nM; read-out: IC50 (nM) BRD4 BD1
Binarize IC50 at 1000 nM; below is rule met, at or above is rule not met.

Look over these answered cases.
COC(=O)C[C@@H]1NCc2c(sc(C)c2Cc2ccccc2)-n2c(C)nnc21; rule not met
Cc1nnc2n1-c1cccc(C3=CCc4ccccc43)c1COC2; rule not met
Cc1nnc2n1-c1cccc(C3CCc4ccccc43)c1COC2 (stereo not drawn); rule not met

Asked: API: query returns whether the compound falls strictly under 1000 nM in IC50. Query: Cc1nnc2n1-c1sc(C3CCOCC3)c(Cc3ccccc3)c1COC2
Given back: rule not met

Asked: API: query returns whether the compound falls strictly under 1000 nM in IC50. Query: C=C(c1ccccc1)c1c(C)sc2c1COCc1nnc(C)n1-2
Given back: rule met

Asked: API: query returns whether the compound falls strictly under 1000 nM in IC50. Query: Cc1sc2c(c1C1=CCCCc3ccccc31)COCc1nnc(C)n1-2
Given back: rule met

Asked: API: query returns whether the compound falls strictly under 1000 nM in IC50. Query: Cc1nnc2n1-c1cccc(C3CCCCc4ccccc43)c1COC2 (stereo not drawn)
Given back: rule not met

Asked: API: query returns whether the compound falls strictly under 1000 nM in IC50. Query: Cc1sc2c(c1C(C)c1ccccc1)COCc1nnc(C)n1-2 (stereo not drawn)
Given back: rule met

Asked: API: query returns whether the compound falls strictly under 1000 nM in IC50. Query: CCC(=O)N1Cc2c(sc(C)c2Cc2ccccc2)-n2c(C)nnc2[C@@H]1C
Given back: rule not met

====

target: recombinant BRD4 BD2 (Homo sapiens, UniProt O60885); construct: recombinant BRD4 BD1 and BRD4 BD2 proteins; experiment: Competitive fluorescence-polarization (FP) binding assay, BRD4 BD2; conditions: protein 6 nM, probe 1.5 nM
I'd be grateful if you could share measured log10(IC50) for these entries.
// stored as log10 of IC50 expressed in nM

Known results for compounds:
CCOC(=O)N1Cc2c(sc(C)c2Cc2ccccc2)-n2c(C)nnc2[C@@H]1C; 2.78
COC(=O)C[C@H]1c2nnc(C)n2-c2sc(C)c(Cc3ccccc3)c2CN1C(=O)OCc1ccccc1; 4.25
Cc1nnc2n1-c1cccc(Cc3ccc(OC(F)(F)F)cc3)c1COC2; 3.14
Cc1nnc2n1-c1cccc(C3CCc4ccccc43)c1COC2 (centres unmarked); 2.48

The record that follows has no log10(IC50) shown yet.
The value of log10(IC50) measured for the compound Cc1nnc2n1-c1sc(C#Cc3ccc(N)nc3)c(Cc3ccccc3)c1COC2 turned out to be 2.50

====

test system: RS4-11; assay: Cell growth inhibition, 4-day proliferation assay, RS4-11; format: cell-based; settings: Homo sapiens, RS4-11, 96 h, read-out: Cell Viability (IC50, μM) RS4-11
Observation Type: IC50 (µM)
Give bare numbers, in µM.

Cc1sc2c(c1Nc1ccccc1)COCc1nnc(C)n1-2; 4.5

The record that follows has no IC50 shown yet.
The value of IC50 measured for the compound Cc1nnc2n1-c1sc(C#Cc3cccnc3)c(Cc3ccccc3)c1COC2 turned out to be 0.25
